assay_name: IT pharmacokinetics of dutogliptin (1) and dutogliptin boronate (15)
Assay type: in vivo, mouse
experimental_parameters: mouse, in vivo, 4.4 mg/kg, Bronchoalveolar lavage fluids concentration of dutogliptin, Mean
measure: concentration at 3 h (ng/mL)
Answers are plain numbers, in ng/mL.

(Q) I'd like to know its concentration at 3 h. The compound in question is `O=C(CN[C@@H]1CCNC1)N1CCC[C@H]1B(O)O`
(A) 309
